Quick list: IC50 per entry.
Tested on: Human foreskin fibroblasts (HFF)
Assay Info: alamarBlue cytotoxicity assay, HFF
Format: cell-based
Experimental Context: Fibroblast, 120 h, pre-confluent cells, 5 days, read-out: IC50 on pre-confluent HFF
Respond numerically; units are µM and should not be typed.

O=C(C1CCCCC1)N1CC(=O)N2CCc3ccccc3C2C1 (centres unmarked) = 6.71

Next, consider the following compound.
So what's the measured IC50 for this one? N#C/N=C1\SCCN1Cc1ccc(Cl)nc1
64.8
